# target desc: Carbonic anhydrase 14 (Homo sapiens, UniProt Q9ULX7)
# Sequence (Q9ULX7 whole entry): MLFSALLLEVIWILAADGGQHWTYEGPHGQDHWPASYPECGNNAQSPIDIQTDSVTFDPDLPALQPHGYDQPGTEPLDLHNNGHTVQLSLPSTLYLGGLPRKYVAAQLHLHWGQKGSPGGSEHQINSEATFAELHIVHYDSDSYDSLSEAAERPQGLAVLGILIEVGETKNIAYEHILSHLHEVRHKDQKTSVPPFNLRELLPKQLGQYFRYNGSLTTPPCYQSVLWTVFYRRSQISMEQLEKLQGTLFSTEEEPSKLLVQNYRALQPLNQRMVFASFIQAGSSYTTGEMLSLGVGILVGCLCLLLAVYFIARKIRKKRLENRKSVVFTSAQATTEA
property name: pKi
One number for each entry, as −log10 of the molar value.

compound string: NS(=O)(=O)c1ccc(CNC(=S)N[C@@H]2O[C@H](CO)[C@@H](O[C@H]3O[C@H](CO)[C@@H](O)[C@H](O)[C@H]3O)[C@H](O)[C@H]2O)cc1
number: 8.07

compound string: CC(=O)OC[C@H]1O[C@@H](NC(=S)NCc2ccc(S(N)(=O)=O)cc2)[C@H](OC(C)=O)[C@@H](OC(C)=O)[C@@H]1O[C@H]1O[C@H](COC(C)=O)[C@@H](OC(C)=O)[C@H](OC(C)=O)[C@H]1OC(C)=O
number: 8.07

Below is a list of compounds. For each, state its recorded pKi.
1. CC(=O)OC[C@H]1O[C@@H](NC(=S)NCc2ccc(S(N)(=O)=O)cc2)[C@H](OC(C)=O)[C@@H](OC(C)=O)[C@@H]1OC(C)=O
2. CC(=O)OC[C@H]1O[C@@H](O[C@H]2[C@H](OC(C)=O)[C@@H](OC(C)=O)[C@H](NC(=S)NNC(=O)c3ccc(S(N)(=O)=O)cc3)O[C@@H]2COC(C)=O)[C@H](OC(C)=O)[C@@H](OC(C)=O)[C@H]1OC(C)=O
3. CC(=O)OC[C@H]1O[C@@H](NC(=S)Nc2ccc(S(N)(=O)=O)cc2)[C@H](OC(C)=O)[C@@H](OC(C)=O)[C@@H]1O[C@H]1O[C@H](COC(C)=O)[C@@H](OC(C)=O)[C@H](OC(C)=O)[C@H]1OC(C)=O
4. CC(=O)OC[C@H]1O[C@@H](NC(=S)Nc2ccc(S(N)(=O)=O)cc2)[C@H](OC(C)=O)[C@@H](OC(C)=O)[C@H]1OC(C)=O
5. NS(=O)(=O)c1ccc(CNC(=S)N[C@@H]2O[C@H](CO)[C@@H](O)[C@H](O)[C@H]2O)cc1
6. CC(=O)OC[C@H]1O[C@@H](NC(=S)NCCc2ccc(S(N)(=O)=O)cc2)[C@H](OC(C)=O)[C@@H](OC(C)=O)[C@H]1OC(C)=O
7. NS(=O)(=O)c1ccc(CCNC(=S)N[C@@H]2O[C@H](CO)[C@@H](O[C@@H]3O[C@H](CO)[C@H](O)[C@H](O)[C@H]3O)[C@H](O)[C@H]2O)cc1
8. NS(=O)(=O)c1ccc(NC(=S)N[C@@H]2O[C@H](CO)[C@@H](O[C@H]3O[C@H](CO)[C@@H](O)[C@H](O)[C@H]3O)[C@H](O)[C@H]2O)cc1

Output line:
[8.07, 7.97, 8.10, 6.90, 7.80, 8.06, 8.08, 8.01]

Below is a list of compounds. For each, state its recorded pKi.
1. NS(=O)(=O)c1ccc(C(=O)NNC(=S)N[C@@H]2O[C@H](CO)[C@H](O)[C@H](O)[C@H]2O)cc1
2. NS(=O)(=O)c1ccc(NC(=S)N[C@@H]2O[C@H](CO)[C@@H](O)[C@H](O)[C@H]2O)cc1
3. CC(=O)OC[C@H]1O[C@@H](O[C@H]2[C@H](OC(C)=O)[C@@H](OC(C)=O)[C@H](NC(=S)Nc3ccc(S(N)(=O)=O)cc3)O[C@@H]2COC(C)=O)[C@H](OC(C)=O)[C@@H](OC(C)=O)[C@H]1OC(C)=O
4. NS(=O)(=O)c1ccc(CCNC(=S)N[C@@H]2O[C@H](CO)[C@@H](O[C@H]3O[C@H](CO)[C@@H](O)[C@H](O)[C@H]3O)[C@H](O)[C@H]2O)cc1
5. NS(=O)(=O)c1ccc(C(=O)NNC(=S)N[C@@H]2O[C@H](CO)[C@@H](O[C@H]3O[C@H](CO)[C@@H](O)[C@H](O)[C@H]3O)[C@H](O)[C@H]2O)cc1
6. NS(=O)(=O)c1ccc(CNC(=S)N[C@@H]2O[C@H](CO)[C@H](O)[C@H](O)[C@H]2O)cc1

Output line:
1. 8.09
2. 7.39
3. 8.07
4. 8.11
5. 8.07
6. 6.89
